The reported numbers originate from patent US20110251230A1.

System: 1321N1 (human) astrocytic line
experimentNotes: 1321N1 oxidative stress assay (serum withdrawal, DCF)
assayContext: 1321N1

[
  {
    "compound": "OC[C@H]1O[C@@H](n2cnc3c(NCc4ccco4)ncnc32)[C@H](O)[C@@H]1O [kinetin riboside]",
    "readoutUnits": "µM",
    "Lowest dose with toxicity": 3
  },
  {
    "compound": "CC1(C)C(=O)C=C[C@]2(C)[C@H]3CC[C@@]4(C)[C@H](c5ccoc5)OC(=O)[C@H]5O[C@]54[C@]3(C)[C@H](O)C[C@@H]12",
    "readoutUnits": "µM",
    "Lowest dose with toxicity": 10
  }
]
